tested on: wheat (Wh); experiment: Test Example 3: phytotoxicity to upland crop plants, treatment before emergence; format: in vivo; details: dosage 5 kg/ha
measure: Phytotoxicity Wh

mol smiles	measured result
CCCNC(=O)c1nc2c(cc1C(=O)Nc1c(CC)ccc(Cl)c1CC)OCCC2	4 (Crop-killing rate is 90-99%.)

* * *

tested on: barnyard grass (Echinochloa crus-galli Beauv.); experiment: Test Example 2: herbicidal effect on paddy field weeds after emergence; format: in vivo; details: Dosage 5 kg/ha; one-leaved stage; 21 days after treatment
measure: Post-emergence treatment Barnyard grass (herbicidal effect)

compound	measured result
CCNC(=O)c1nc2ccsc2cc1C(=O)Nc1c(CC)ccc(Cl)c1CC	5 (Weed-killing rate is 100%.)
CCCNC(=O)c1nc2cc3c(cc2cc1C(=O)Nc1c(CC)ccc(Cl)c1CC)OCO3	4 (Weed-killing rate is 90-99%.)
CCCNC(=O)c1nc2ccccc2cc1C(=O)Nc1c(CC)ccc(Cl)c1CC	5 (Weed-killing rate is 100%.)
Cc1c(Cl)cccc1NC(=O)c1cc2c(nc1C(=O)NCC(C)C)SCCC2	5 (Weed-killing rate is 100%.)
CCc1ccc(Cl)c(CC)c1NC(=O)c1cc2c(nc1C(=O)NC1CCCC1)SCCC2	5 (Weed-killing rate is 100%.)
CCCNC(=O)c1cc2c(nc1C(=O)Nc1c(CC)ccc(Cl)c1CC)[S+]([O-])CC2 (centres unmarked)	5 (Weed-killing rate is 100%.)
CCCNC(=O)c1nc2sccc2cc1C(=O)Nc1c(CC)ccc(Cl)c1CC	5 (Weed-killing rate is 100%.)
Cc1c(Cl)cccc1NC(=O)c1cc2sccc2nc1C(=O)NC1CCCC1	5 (Weed-killing rate is 100%.)
CCNC(=O)c1nc2occc2cc1C(=O)Nc1c(CC)ccc(Cl)c1CC	5 (Weed-killing rate is 100%.)
CCc1ccc(Cl)c(CC)c1NC(=O)c1cc2cc(OC)c(OC)cc2nc1C(=O)NCC(C)C	3 (Weed-killing rate is 70-89%.)
CCCNC(=O)c1nc2cc(F)ccc2cc1C(=O)Nc1c(CC)ccc(Cl)c1CC	5 (Weed-killing rate is 100%.)
CCc1ccc(Cl)c(CC)c1NC(=O)c1cc2cc(OC)ccc2nc1C(=O)NOC(C)C	5 (Weed-killing rate is 100%.)
CCCNC(=O)c1nc2ccc(O)cc2cc1C(=O)Nc1c(CC)ccc(Cl)c1CC	3 (Weed-killing rate is 70-89%.)
CCCNC(=O)c1nc2occc2cc1C(=O)Nc1c(CC)ccc(Cl)c1CC	5 (Weed-killing rate is 100%.)
CCc1ccc(Cl)c(CC)c1NC(=O)c1cc2ccccc2nc1C(=O)NC(C)(C)C	5 (Weed-killing rate is 100%.)
CCc1ccc(Cl)c(CC)c1NC(=O)c1cc2ccccc2nc1C(=O)NC	5 (Weed-killing rate is 100%.)
CCCNC(=O)c1nc2c(cc1C(=O)Nc1c(CC)ccc(Cl)c1CC)CCOC2	5 (Weed-killing rate is 100%.)

* * *

# reported Phytotoxicity So; entries follow
system: soybean plant (So); assay: Test Example 3: phytotoxicity to upland crop plants, treatment before emergence; format: in vivo; settings: dosage 5 kg/ha

mol smiles	Phytotoxicity So
Cc1c(Cl)cccc1NC(=O)c1cc2ccoc2nc1C(=O)NC1CCCC1	4 (Crop-killing rate is 90-99%.)
CCCNC(=O)c1nc2c(cnn2C)cc1C(=O)Nc1c(CC)ccc(Cl)c1CC	5 (Crop-killing rate is 100%.)
CCCNC(=O)c1nc2c(cc1C(=O)Nc1cccc(Cl)c1C)COCC2	3 (Crop-killing rate is 70-89%.)
CCc1ccc(Cl)c(CC)c1NC(=O)c1nc2ccccc2nc1C(=O)NCC(C)(C)C	3 (Crop-killing rate is 70-89%.)
CCNC(=O)c1nc2ccsc2cc1C(=O)Nc1c(CC)ccc(Cl)c1CC	3 (Crop-killing rate is 70-89%.)
CCCNC(=O)c1nc2c(C)nn(C)c2cc1C(=O)Nc1c(CC)ccc(Cl)c1CC	5 (Crop-killing rate is 100%.)
CCCNC(=O)c1nc2c(cc1C(=O)Nc1c(CC)ccc(Cl)c1CC)CCSC2	3 (Crop-killing rate is 70-89%.)
CCCNC(=O)c1nc2ccc(OC)cc2cc1C(=O)Nc1c(CC)ccc(Cl)c1CC	1 (Crop-killing rate is 1-39%.)
